System: solgum
Assay: Foliar spread test for upland field
Assay type: in vivo
Parameters: key: 0: normal development; 1: Less damaged; 2: Slightly damaged; 3: Moderately damaged; 4: Severely damaged; 5: All killed
Details: foliar spray 500 ppm, 3 weeks, rank vs non-treated

Compound | Effects Solgum
CCCC(Oc1ccc(F)c(C(F)(F)F)c1)c1nc2cc(C#N)c(Cl)cc2o1 (stereo not shown) | 2
CCCC(Oc1cccc(C(F)(F)F)c1)c1nc2cc(C(F)(F)F)ccc2o1 (stereo not shown) | 2
CCC(Oc1ccc(F)c(C(F)(F)F)c1)c1nc2cc([N+](=O)[O-])ccc2o1 (stereo not shown) | 2
CCC(Oc1cccc(C#N)c1)c1nc2cc(S(C)(=O)=O)c(C)cc2o1 (stereo not shown) | 1

# credit: patent US6706664B1
